B1: peptide HD2 (from tick evasin EVA4) / CXCL13 (biotinylated, synthetic) (parent)
chain 1: EEDDYTAYAPLTCYFT
chain 2: VLEVYYTSLRCRCVQESSVFIPRRFIDRIQILPRGNGCPRKEIIVWKKNKSIVCVDPQAEWIQRMMEVLRKRSSSTLPVPVFKRKIP

variants of: B1; settings: with CXCL13 (biotinylated, synthetic); scale: log2
# binning rule on enrichment: bottom range (below -8), center range (-8 to below -6), top range (-6 or more)

>  <mutation.descriptor>
chain 1 E1C

>  <class>
bottom range

$$$$
>  <mutation.descriptor>
chain 1 D4T

>  <class>
center range

$$$$
>  <mutation.descriptor>
chain 1 C13W

>  <class>
bottom range

$$$$
>  <mutation.descriptor>
chain 1 C13H

>  <class>
center range

$$$$
>  <mutation.descriptor>
chain 1 Y5T

>  <class>
center range

$$$$
>  <mutation.descriptor>
chain 1 T12G

>  <class>
bottom range

$$$$
>  <mutation.descriptor>
chain 1 C13M

>  <class>
bottom range

$$$$
>  <mutation.descriptor>
chain 1 L11K

>  <class>
top range

$$$$
>  <mutation.descriptor>
chain 1 F15N

>  <class>
top range

$$$$
>  <mutation.descriptor>
chain 1 Y14E

>  <class>
center range

$$$$
>  <mutation.descriptor>
chain 1 L11Q

>  <class>
top range

$$$$
>  <mutation.descriptor>
chain 1 Y8K

>  <class>
top range

$$$$
>  <mutation.descriptor>
chain 1 P10Y

>  <class>
center range

$$$$
>  <mutation.descriptor>
chain 1 L11E

>  <class>
center range

$$$$
